# System: U-251
# MEASUREMENT_DESCRIPTION: Growth inhibition of human U251 cells assessed as cell growth at 10 uM incubated for 48 hrs by sulforhodamine B assay relative to control
# Assay type: functional
# TEST_PARAMETERS: U-251, 48 h, read-out: Activity
Recorded growth at 10 µM by entry

{"STRUCTURE_STRING": "Cc1oc2ncnc(Nc3ccc(OCc4cccc(F)c4)c(Cl)c3)c2c1C(=O)NCCO", "growth at 10 µM": "48.1%"}
{"STRUCTURE_STRING": "Cc1oc2ncnc(Nc3cccc(F)c3)c2c1C(=O)NCCO", "growth at 10 µM": "104%"}
{"STRUCTURE_STRING": "Cc1oc2ncnc(Nc3ccccc3)c2c1C(=O)NCCO", "growth at 10 µM": "102%"}
{"STRUCTURE_STRING": "Cc1oc2ncnc(Nc3cccc(F)c3)c2c1C(=O)O", "growth at 10 µM": "106%"}
